targetOfAssay: HIF-PH2 (EGLN1) (Homo sapiens)
Construct: made in house; host or cells: insect Hi5 cells
Sequence (Q9GZT9 whole entry, species assumed): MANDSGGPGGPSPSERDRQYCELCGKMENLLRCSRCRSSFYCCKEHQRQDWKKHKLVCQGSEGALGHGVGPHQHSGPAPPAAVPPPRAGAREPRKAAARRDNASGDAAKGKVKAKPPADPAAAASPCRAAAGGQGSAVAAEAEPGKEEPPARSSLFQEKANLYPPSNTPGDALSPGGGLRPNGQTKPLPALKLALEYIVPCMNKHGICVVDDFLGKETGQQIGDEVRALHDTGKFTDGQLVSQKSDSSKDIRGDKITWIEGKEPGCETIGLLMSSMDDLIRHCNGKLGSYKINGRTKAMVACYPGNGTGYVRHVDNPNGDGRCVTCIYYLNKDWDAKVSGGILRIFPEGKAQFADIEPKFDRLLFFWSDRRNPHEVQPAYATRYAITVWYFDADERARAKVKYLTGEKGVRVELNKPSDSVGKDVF
test: HIF-PH assay (14CO2 capture, peptide-dependent turnover)
Assay type: biochemical
testConditions: Concentration 200.00 μM
readoutKind: inhibition at 200 µM (%)

CCc1noc2c(O)c(C(=O)NCC(=O)O)ncc12 : 99.1
O=C(O)CNC(=O)c1ncc2nc(-c3ccc(F)cc3)oc2c1O : 100
N#Cc1nc(C(=O)NCC(=O)O)c(O)c2onc(-c3cccs3)c12 : 98.8
O=C(O)CNC(=O)c1nc(C(F)(F)F)c2c(-c3ccccc3)noc2c1O : 94.2
O=C(O)CNC(=O)c1nc(-c2cn(Cc3ccccc3)nn2)c2c(-c3ccccc3)noc2c1O : 100
CC(=O)c1nc(C(=O)NCC(=O)O)c(O)c2onc(-c3ccccc3)c12 : 100
COc1ccc(-c2noc3c(O)c(C(=O)NCC(=O)O)nc(C)c23)cc1 : 98.9
CCCCc1nc(C(=O)NCC(=O)O)c(O)c2oc(-c3ccccc3)nc12 : 99.5
Cc1nc(C(=O)NCC(=O)O)c(O)c2c(-c3ccc(Cl)cc3)noc12 : 99.4
